# ASSAY_TARGET: HCV polymerase 1A (Δ21 NS5B, H77) (Hepatitis C virus genotype 1a)
# Construct: 20 to 50 nM Δ21 NS5B
# Sequence (P27958 2421-2990, stated change not applied): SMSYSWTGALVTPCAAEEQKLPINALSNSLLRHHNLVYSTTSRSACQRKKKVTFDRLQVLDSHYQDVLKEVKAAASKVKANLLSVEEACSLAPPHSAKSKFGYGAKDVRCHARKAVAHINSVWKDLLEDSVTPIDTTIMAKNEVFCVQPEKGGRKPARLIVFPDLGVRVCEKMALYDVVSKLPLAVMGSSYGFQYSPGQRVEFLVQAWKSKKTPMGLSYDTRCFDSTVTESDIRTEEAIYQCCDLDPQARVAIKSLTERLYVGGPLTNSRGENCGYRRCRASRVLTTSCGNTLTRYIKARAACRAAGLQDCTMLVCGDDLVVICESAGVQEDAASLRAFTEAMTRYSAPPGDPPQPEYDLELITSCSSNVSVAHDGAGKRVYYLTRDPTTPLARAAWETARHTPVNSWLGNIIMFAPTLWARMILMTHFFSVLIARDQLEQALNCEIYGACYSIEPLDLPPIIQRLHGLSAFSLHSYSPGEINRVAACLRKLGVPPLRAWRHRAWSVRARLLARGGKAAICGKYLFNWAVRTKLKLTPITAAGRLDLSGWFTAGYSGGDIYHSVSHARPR
# EXPERIMENT_SUMMARY: biochemical
pIC50: −log10 of the molar value.
OBSERVATION_TYPE: pIC50

// solved cases for pIC50 follow
[[record]]
compound = "COC(=O)c1cc(NS(C)(=O)=O)ccc1/C=C/c1cc(-n2ccc(=O)[nH]c2=O)cc(C(C)(C)C)c1OC"
test_value = "> 8.00"

[[record]]
compound = "COc1c(/C=C/c2ccc(NS(C)(=O)=O)cc2)cc(N2CCC(=O)NC2=O)cc1C(C)(C)C"
test_value = "> 8.00"

[[record]]
compound = "COc1c(/C=C/c2ccc(NS(C)(=O)=O)cc2)cc(-n2ccc(=O)[nH]c2=O)cc1-c1ccoc1"
test_value = "7.00 to 8.00"

[[record]]
compound = "COc1c(/C=C/c2ccccc2)cc(N2CCC(=O)NC2=O)cc1C(C)(C)C"
test_value = "6.00 to 7.00"

[[record]]
compound = "COCc1cc(NS(C)(=O)=O)ccc1/C=C/c1cc(-n2ccc(=O)[nH]c2=O)cc(C(C)(C)C)c1OC"
test_value = "> 8.00"

[[record]]
compound = "COc1c(/C=C(/F)c2ccc(NS(C)(=O)=O)cc2)cc(N2CCC(=O)NC2=O)cc1C(C)(C)C"
test_value = "> 8.00"


For each of the items listed, what is its pIC50?
1. COc1c(C2CC2c2ccc(NS(C)(=O)=O)cc2)cc(N2CCC(=O)NC2=O)cc1C(C)(C)C (stereo not drawn)
2. CCOC(=O)c1cc(NS(C)(=O)=O)ccc1/C=C/c1cc(-n2ccc(=O)[nH]c2=O)cc(C(C)(C)C)c1OC

stdout:
1. 6.00 to 7.00
2. > 8.00
